protocol-notes: in vivo
Design: species or system BALB/c nu/nu female mice
experimental-context: female, BALB/c nu/nu, mouse, iv, 40 pmol, total radioactivity, Blood uptake
Listed here are molecules together with their documented tissue uptake at 4 h.
Respond numerically; units are %ID/g and should not be typed.

molecule	units-of-measure	tissue uptake at 4 h
CCNC(=O)[C@H](CC(C)C)NC(=O)[C@H](Cc1c[nH]cn1)NC(=O)CN(C)C(=O)[C@@H](NC(=O)[C@H](C)NC(=O)[C@H](Cc1c[nH]c2ccccc12)NC(=O)[C@H](CCC(N)=O)NC(=O)[C@@H](Cc1ccccc1)NC(=O)COCC(=O)Nc1ccc(CNC(=O)CCC(C(=O)O)N2CCN(CC(=O)O)CCN(CC(=O)O)CCN(CC(=O)O)CC2)cc1)C(C)C (stereo partly drawn) [[^111In]In-AU-SAR-M1, metal not drawn]	%ID/g	0.08

Short answer for CCNC(=O)[C@H](CC(C)C)NC(=O)[C@H](Cc1c[nH]cn1)NC(=O)CN(C)C(=O)[C@@H](NC(=O)[C@H](C)NC(=O)[C@H](Cc1c[nH]c2ccccc12)NC(=O)[C@H](CCC(N)=O)NC(=O)[C@@H](Cc1ccccc1)NC(=O)COCC(=O)Nc1ccc(CNC(=O)[C@H](CCCNC(=N)N)NC(=O)CCC(C(=O)O)N2CCN(CC(=O)O)CCN(CC(=O)O)CCN(CC(=O)O)CC2)cc1)C(C)C (stereo partly drawn) [[^111In]In-AU-SAR-M2, [^111In]In-[DOTAGA-Arg]AU-SAR-M1, metal not drawn] : tissue uptake at 4 h was 0.08

// tissue uptake at 4 h lookup, molecule = CCNC(=O)[C@H](CC(C)C)NC(=O)[C@H](Cc1c[nH]cn1)NC(=O)CN(C)C(=O)[C@@H](NC(=O)[C@H](C)NC(=O)[C@H](Cc1c[nH]c2ccccc12)NC(=O)[C@H](CCC(N)=O)NC(=O)[C@@H](Cc1ccccc1)NC(=O)COCC(=O)Nc1ccc(CNC(=O)[C@@H](CCCNC(=N)N)NC(=O)CCC(C(=O)O)N2CCN(CC(=O)O)CCN(CC(=O)O)CCN(CC(=O)O)CC2)cc1)C(C)C (stereo partly drawn) [[^111In]In-AU-SAR-M3, [^111In]In-[DOTAGA-DArg]AU-SAR-M1, metal not drawn] , result: 0.05
